Values were extracted from BigSolDB 2.1.

Settings: in isopropanol, 288.15 K
Measured parameter: solubility (mole fraction)
Output: the number by itself.

Query :: Fill blank: measured solubility (mole fraction) of the molecule COc1ccc(CC(=O)O)cc1 is ____.
Result :: 0.142

----------
Details: in acetonitrile, 288.15 K
Measured parameter: solubility (mole fraction)
Output: the number by itself.

Query :: Fill blank: measured solubility (mole fraction) of the compound COc1ccc(CC(=O)O)cc1 is ____.
Result :: 0.0499

----------
Settings: in morpholine, 313.15 K
Measured parameter: solubility (mole fraction)

Query :: Fill blank: measured solubility (mole fraction) of the compound COc1ccc(CC(=O)O)cc1 is ____.
Result :: 0.0404
